# Tested Target: Metallo-beta-lactamase VIM-2 [21-266] (Klebsiella pneumoniae)
# Construct: 21-266
# Test Summary: Enzyme Inhibition Assay
So I've got a bunch of compounds here, and I need their pIC50 values.
Convention used: pIC50 is expressed as -log10 of the molar concentration.

Input: Using Metallo-beta-lactamase VIM-2 [21-266] (Klebsiella pneumoniae) as the test system, report measured pIC50 of `C[C@H](CS)C(=O)N1CCC[C@H]1C(=O)O` .
Output: 5.21

Input: Using Metallo-beta-lactamase VIM-2 [21-266] (Klebsiella pneumoniae) as the test system, report measured pIC50 of `[Bi+3]` .
Output: 5.61

Input: Using Metallo-beta-lactamase VIM-2 [21-266] (Klebsiella pneumoniae) as the test system, report measured pIC50 of `O=C(O)C[C@@](O)(CC(O)O)C(=O)O` .
Output: 4.35

----------
# Tested Target: Metallo-beta-lactamase type 2 [29-270] (Klebsiella pneumoniae, UniProt C7C422)
# Construct: 29-270
# Sequence (C7C422 29-270): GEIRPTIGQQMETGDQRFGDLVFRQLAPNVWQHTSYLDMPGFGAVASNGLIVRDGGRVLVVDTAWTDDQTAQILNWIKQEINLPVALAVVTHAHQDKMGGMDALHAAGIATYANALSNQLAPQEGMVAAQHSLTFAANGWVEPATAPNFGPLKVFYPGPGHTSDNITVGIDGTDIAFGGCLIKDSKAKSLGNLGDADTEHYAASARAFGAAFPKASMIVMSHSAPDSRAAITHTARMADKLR
# Test Summary: Enzyme Inhibition Assay
Property Label: pIC50
Convention used: pIC50 is expressed as -log10 of the molar concentration.

Input: Identify measured pIC50 corresponding to `O=C(O)C[C@@](O)(CC(O)O)C(=O)O`
Output: 5.23

Input: Identify measured pIC50 corresponding to `[Bi+3]`
Output: 5.72

Input: Identify measured pIC50 corresponding to `CC(=O)N[C@@H](CS)C(=O)O`
Output: 4.75
